- Target: human CCR6 (Homo sapiens, UniProt P51684)
- Construct: expressed in transfected cells; host or cells: HEK-293
- Sequence (P51684 whole entry): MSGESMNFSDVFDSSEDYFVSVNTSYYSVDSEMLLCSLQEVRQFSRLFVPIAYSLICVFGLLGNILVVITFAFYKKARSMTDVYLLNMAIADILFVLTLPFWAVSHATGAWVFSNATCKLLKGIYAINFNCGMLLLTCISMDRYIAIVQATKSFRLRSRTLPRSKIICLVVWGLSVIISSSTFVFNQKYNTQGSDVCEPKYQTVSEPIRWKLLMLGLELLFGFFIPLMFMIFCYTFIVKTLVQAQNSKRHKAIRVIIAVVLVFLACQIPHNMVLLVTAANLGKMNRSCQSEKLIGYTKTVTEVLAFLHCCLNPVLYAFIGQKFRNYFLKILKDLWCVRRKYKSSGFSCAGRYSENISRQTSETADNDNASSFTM
- Method summary: FLIPR assay (inhibition of CCL20-induced calcium signal)
- Format: cell-based
- Condition notes: HEK-293 cells expressing human CCR6; mean values where determined several times; read-out: FLIPR IC50
Measure: IC50 (µM)

Check out these entries, answers already filled in.
| Compound | Observed result |
| --- | --- |
| COCCOc1cc([C@@](O)(c2ccc(C(C)C)cc2)C2(C)CN(C)C2)ccn1 | 0.0489 |
| CC(C)c1ccc([C@](O)(c2cncc(-c3noc(COC4CCOCC4)n3)c2)C2(C)CN(C)C2)cc1 | 0.0849 |
| CC(C)c1ccc([C@](O)(c2cncc(-c3noc(C4COC4)n3)c2)C2(C)CN(C)C2)cc1 | 0.0745 |
| CC(C)c1ccc([C@](O)(c2cncc(-c3noc(C4CCNC(=O)C4)n3)c2)C2(C)CN(C)C2)cc1 (single isomer, unassigned) [Example 516] | 0.104 |
| CC(C)c1ccc(C(O)(c2cncc(N3CCCC3)n2)C2(C)CN(C)C2)cc1 (stereo not drawn) | 0.0501 |
| CC(C)c1ccc([C@](O)(c2cncc(C(=O)N3CCCC3)c2)C2(C)CN(C)C2)cc1 | 0.567 |
| [2H]C([2H])([2H])C(=O)NC1(c2nc(-c3cncc([C@@](O)(c4ccc(C(C)C)cc4)C4(C)CN(C)C4)c3)no2)CC1 | 0.29 |
| CC(C)c1ccc([C@](O)(c2cncc(CCc3cc4cccnc4[nH]3)c2)C2(C)CN(C)C2)cc1 | 0.0367 |

P. CC(C)c1ccc([C@](O)(c2cncc(-c3nc(COC(C)(C)C)no3)c2)C2(C)CN(C)C2)cc1
Q. CC(C)c1ccc([C@](O)(c2cncc(C#CC(C)(O)c3ccccc3)c2)C2(C)CN(C)C2)cc1 (stereo partly drawn)
R. [2H]C([2H])([2H])C(=O)N1CC(C)(c2nc(-c3cncc([C@@](O)(c4ccc(C(C)C)cc4)C4(C)CN(C)C4)c3)no2)C1
-- ask Falling order of IC50, please. Output spec: labels arranged per the requested ranking.
-- reply R, P, Q
(R: 0.441 µM, P: 0.0626 µM, Q: 0.00769 µM)

a. CC1([C@](O)(c2ccc(OC(F)(F)F)cc2)c2cncc(N3CCCC3)c2)CN(CCF)C1
b. COC1(c2noc(-c3cncc([C@@](O)(c4ccc(C5CC5)cc4)C4(C)CN(C)C4)c3)n2)CCOCC1
-- ask I need your help: which of the pair a , b has higher IC50? Use the label to indicate which entry you chose.
-- reply b

1. CCC1(O)CCC(c2cncc([C@@](O)(c3ccc(C(C)C)cc3)C3(C)CN(C)C3)c2)C1 (stereo partly drawn)
2. CN1CC(C)(C(O)(c2ccc(OC3CC3)cc2)c2cncc(N3CCCC3)c2)C1 (stereo not drawn)
-- ask When the recorded IC50 values are compared, which is smaller: that of 1 or that of 2 ? Use the label to indicate which entry you chose.
-- reply 1
